# TARGET OF ASSAY: Serine/threonine-protein kinase Chk1 (Homo sapiens)
# Sequence (O14757 whole entry): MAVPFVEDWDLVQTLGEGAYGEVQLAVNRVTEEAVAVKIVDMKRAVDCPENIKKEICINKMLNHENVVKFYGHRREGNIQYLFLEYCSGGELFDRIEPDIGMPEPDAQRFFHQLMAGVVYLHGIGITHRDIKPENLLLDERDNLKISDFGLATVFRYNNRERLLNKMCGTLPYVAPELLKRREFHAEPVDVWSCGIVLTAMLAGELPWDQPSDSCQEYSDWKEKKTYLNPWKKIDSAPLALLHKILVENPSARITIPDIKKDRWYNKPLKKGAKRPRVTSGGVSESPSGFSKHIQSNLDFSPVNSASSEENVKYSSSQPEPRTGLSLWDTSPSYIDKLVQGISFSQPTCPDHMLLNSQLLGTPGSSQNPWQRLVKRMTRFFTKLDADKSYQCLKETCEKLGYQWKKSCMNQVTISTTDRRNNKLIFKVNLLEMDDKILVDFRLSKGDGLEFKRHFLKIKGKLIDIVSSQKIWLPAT
# ASSAY OVERVIEW: Inhibition of human recombinant Chk1
pIC50: −log10 of the molar value.
MEASUREMENT NAME: pIC50

[
  {
    "STRUCTURE AS SMILES": "N=C(N)NCCCNC(=O)c1cccc(CNC(=O)c2cc3c(c4c2[nH]c2ccc(O)cc24)C(=O)NC3=O)c1",
    "NUMERIC VALUE": 7.66
  }
]

1: NC(=O)c1cccc(CNC(=O)c2cc3c(c4c2[nH]c2ccccc24)C(=O)NC3=O)c1
2: NCCCNC(=O)c1cccc(CNC(=O)c2cc3c(c4c2[nH]c2ccccc24)C(=O)NC3=O)c1
3: N=C(N)NCCNC(=O)c1cccc(CNC(=O)c2cc3c(c4c2[nH]c2ccccc24)C(=O)NC3=O)c1
4: Cl.NCCNC(=O)c1cccc(CNC(=O)c2cc3c(c4c2[nH]c2ccc(O)cc24)C(=O)NC3=O)c1
5: O=C1NC(=O)c2c1cc(C(=O)NCc1ccccc1)c1[nH]c3ccccc3c21
## Task Order the records, beginning with the lowest pIC50 and ending with the highest. Reply format: the labels, ordered as requested.
## Result 5, 1, 2, 3, 4
(5: 5.05, 1: 6.35, 2: 6.60, 3: 6.91, 4: 7.51)
